# ASSAY_PROTOCOL: determination of the log P values by HPLC on a reverse phase column (C18), EEC-Directive 79/831 Annex V.A8
# Format: physicochemical
# CONDITION_LABEL: pH 7

{"COMPOUND": "Fc1ccc(-c2nn3c(c2Br)CCC3)cc1 [[IV-1]]", "chromatographic logP": 3.21}

###

# pest or weed control at 500 ppm listing for each entry below
# Tested on: Pyricularia oryzae
# ASSAY_PROTOCOL: whole plant or invertebrate
# Assay type: in vivo
# CONDITION_LABEL: 168 h, read-out: efficacy

{"COMPOUND": "CCC(=O)N(C(=O)CC)c1cc(-c2c(-c3ccc(F)cc3)nn3c2CCC3)ccn1", "ASSAY_SYSTEM": "Pyricularia oryzae", "ENDPOINT_UNIT": "%", "pest or weed control at 500 ppm": 70}
{"COMPOUND": "CCC(=O)N(C(C)=O)c1cc(-c2c(-c3ccc(F)cc3)nn3c2CCC3)ccn1", "ASSAY_SYSTEM": "Pyricularia oryzae", "ENDPOINT_UNIT": "%", "pest or weed control at 500 ppm": 95}
{"COMPOUND": "O=C(C1CC1)N(C(=O)C1CC1)c1cc(-c2c(-c3ccc(F)cc3)nn3c2CCC3)ccn1", "ASSAY_SYSTEM": "Pyricularia oryzae", "ENDPOINT_UNIT": "%", "pest or weed control at 500 ppm": 80}
{"COMPOUND": "CC(=O)N(C(C)=O)c1cc(-c2c(-c3ccc(F)cc3)nn3c2CCCC3)ccn1", "ASSAY_SYSTEM": "Pyricularia oryzae", "ENDPOINT_UNIT": "%", "pest or weed control at 500 ppm": 80}
{"COMPOUND": "CC(=O)N(C(C)=O)c1cc(-c2c(-c3ccsc3)nn3c2CCCC3)ccn1", "ASSAY_SYSTEM": "Pyricularia oryzae", "ENDPOINT_UNIT": "%", "pest or weed control at 500 ppm": 95}
{"COMPOUND": "CCOC(=O)N(C(=O)C1CC1)c1cc(-c2c(-c3ccc(F)cc3)nn3c2CCC3)ccn1", "ASSAY_SYSTEM": "Pyricularia oryzae", "ENDPOINT_UNIT": "%", "pest or weed control at 500 ppm": 70}
{"COMPOUND": "CC(=O)N(C(C)=O)c1cc(-c2c(-c3ccccc3)nn3c2CCCC3)ccn1", "ASSAY_SYSTEM": "Pyricularia oryzae", "ENDPOINT_UNIT": "%", "pest or weed control at 500 ppm": 70}
{"COMPOUND": "CC(=O)N(C(C)=O)c1cc(-c2c(-c3cccs3)nn3c2CCCC3)ccn1", "ASSAY_SYSTEM": "Pyricularia oryzae", "ENDPOINT_UNIT": "%", "pest or weed control at 500 ppm": 95}
{"COMPOUND": "CCC(=O)N(C(=O)C1CC1)c1cc(-c2c(-c3ccc(F)cc3)nn3c2CCC3)ccn1", "ASSAY_SYSTEM": "Pyricularia oryzae", "ENDPOINT_UNIT": "%", "pest or weed control at 500 ppm": 90}
{"COMPOUND": "CCC(=O)N(C(C)=O)c1cc(-c2c(-c3ccc(F)cc3)nn3c2CCC3C)ccn1 (centres unmarked)", "ASSAY_SYSTEM": "Pyricularia oryzae", "ENDPOINT_UNIT": "%", "pest or weed control at 500 ppm": 90}
{"COMPOUND": "CCC(=O)N(C(=O)C(C)C)c1cc(-c2c(-c3ccc(F)cc3)nn3c2CCOC3C)ccn1 (centres unmarked)", "ASSAY_SYSTEM": "Pyricularia oryzae", "ENDPOINT_UNIT": "%", "pest or weed control at 500 ppm": 90}

###

# ASSAY_PROTOCOL: determination of the log P values by HPLC on a reverse phase column (C18), EEC-Directive 79/831 Annex V.A8
# Format: physicochemical
# CONDITION_LABEL: pH 2.7
Threshold check on chromatographic logP: strictly below 3 is TRUE; on or above 3 is FALSE.

{"COMPOUND": "Nc1cc(-c2c(-c3ccc(F)c(Cl)c3)nn3c2CCC3)ccn1 [[II-2]]", "CLASSIFICATION": "TRUE"}
{"COMPOUND": "Nc1cc(-c2c(-c3ccc(F)cc3)nn3c2CCC3)ccn1 [[II-1]]", "CLASSIFICATION": "TRUE"}
{"COMPOUND": "O=C(C1CC1)N(C(=O)C1CC1)c1cc(-c2c(-c3ccc(F)cc3)nn3c2CCCC3)ccn1", "CLASSIFICATION": "FALSE"}
{"COMPOUND": "OCCCCc1cc(-c2ccc(F)cc2)n[nH]1 [[XIV-4]]", "CLASSIFICATION": "TRUE"}
{"COMPOUND": "CC1(C)OB(c2c(-c3ccc(F)c(Cl)c3)nn3c2CCC3)OC1(C)C [[III-3]]", "CLASSIFICATION": "FALSE"}
{"COMPOUND": "CC1(C)OB(c2c(-c3ccc(F)cc3)nn3c2CCC3)OC1(C)C [[III-1]]", "CLASSIFICATION": "FALSE"}
{"COMPOUND": "O=C(CCCCO)CC(=O)c1ccc(F)cc1 [[XIII-4]]", "CLASSIFICATION": "TRUE"}
{"COMPOUND": "CS(=O)(=O)OCCCc1cc(-c2ccc(F)c(F)c2)n[nH]1 [[VII-3]]", "CLASSIFICATION": "TRUE"}
{"COMPOUND": "Fc1ccc(-c2cc3n(n2)CCC3)cc1F [[VI-2]]", "CLASSIFICATION": "TRUE"}
{"COMPOUND": "Nc1cc(-c2c(-c3ccc(F)c(F)c3)nn3c2CCC3)ccn1 [[II-3]]", "CLASSIFICATION": "TRUE"}

###

# ASSAY_PROTOCOL: determination of the log P values by HPLC on a reverse phase column (C18), EEC-Directive 79/831 Annex V.A8
# Type: physicochemical
# chromatographic logP listing for each entry below

{"COMPOUND": "CC(=O)N(C(C)=O)c1cc(-c2c(-c3ccccc3)nn3c2CCCC3)ccn1", "chromatographic logP": 2.22}
{"COMPOUND": "CCC(=O)N(C(C)=O)c1cc(-c2c(-c3ccc(F)cc3)nn3c2CCC3)ccn1", "chromatographic logP": 2.43}
{"COMPOUND": "O=C(C1CC1)N(C(=O)C1CC1)c1cc(-c2c(-c3ccc(F)cc3)nn3c2CCC3)ccn1", "chromatographic logP": 2.91}
{"COMPOUND": "CC(=O)N(C(C)=O)c1cc(-c2c(-c3ccsc3)nn3c2CCCC3)ccn1", "chromatographic logP": 2.18}
{"COMPOUND": "CCC(=O)N(C(=O)CC)c1cc(-c2c(-c3ccc(F)cc3)nn3c2CCCC3)ccn1", "chromatographic logP": 3.18}
{"COMPOUND": "CC(C)CC(=O)N(C(=O)CC(C)C)c1cc(-c2c(-c3ccc(F)cc3)nn3c2CCOC3C)ccn1 (centres unmarked)", "chromatographic logP": 5.01}
{"COMPOUND": "CC(=O)N(C(C)=O)c1cc(-c2c(-c3ccc(F)cc3)nn3c2CCOC3C)ccn1 (centres unmarked)", "chromatographic logP": 2.56}
{"COMPOUND": "CCC(=O)N(C(=O)C1CC1)c1cc(-c2c(-c3ccc(F)cc3)nn3c2CCC3)ccn1", "chromatographic logP": 2.87}

###

# Test system: Pyrenophora teres
# ASSAY_PROTOCOL: Pyrenophora test (barley)/preventive
# Format: in vivo
# CONDITION_LABEL: 500 ppm of active ingredient, preventive, evaluated 7-9 days after inoculation, read-out: efficacy

{"SMILES_DATA": "CC(=O)N(C(C)=O)c1cc(-c2c(-c3cccs3)nn3c2CCCC3)ccn1", "pest or weed control at 500 ppm": "100%"}
{"SMILES_DATA": "CCC(=O)N(C(C)=O)c1cc(-c2c(-c3ccc(F)cc3)nn3c2CCC3)ccn1", "pest or weed control at 500 ppm": "100%"}
{"SMILES_DATA": "CC(=O)N(C(C)=O)c1cc(-c2c(-c3ccc(F)cc3)nn3c2CCCC3)ccn1", "pest or weed control at 500 ppm": "95%"}

###

# ASSAY_PROTOCOL: determination of the log P values by HPLC on a reverse phase column (C18), EEC-Directive 79/831 Annex V.A8
# Format: physicochemical
# CONDITION_LABEL: pH 2.3
# Protocol: Method A Note on the determination of the log P values and mass detection: The stated log P values were determined in accordance with EEC-Directive 79/831 Annex V.A8 by HPLC (High Performance Liquid Chromatography) on a reverse phase column (C18). […] Method B Note on the determination of the log P values and mass detection: The stated log P values were determined in accordance with EEC-Directive 79/831 Annex V.A8 by HPLC (High Performance Liquid Chromatography) on a reverse phase column (C18). […]
# chromatographic logP listing for each entry below

{"COMPOUND": "CC(C)C(=O)Nc1cc(-c2c(-c3ccc(F)cc3)nn3c2CCC3)ccn1 [[XI-8]]", "chromatographic logP": 1.97}
{"COMPOUND": "OCCCc1cc(-c2ccc(F)c(Cl)c2)n[nH]1 [[XIV-3]]", "chromatographic logP": 1.97}
{"COMPOUND": "CCC(=O)Nc1cc(-c2c(-c3ccccc3)nn3c2C(C)CC3)ccn1 (stereo not shown) [[XI-2]]", "chromatographic logP": 1.87}
{"COMPOUND": "Fc1ccc(-c2nn3c(c2Br)CCC3)cc1Cl [[IV-3]]", "chromatographic logP": 4.01}
{"COMPOUND": "OCCCc1cc(-c2ccc(F)cc2)n[nH]1 [[XIV-1]]", "chromatographic logP": 1.5}
{"COMPOUND": "Fc1ccc(-c2cc3n(n2)CCC3)cc1 [[VI-1]]", "chromatographic logP": 2.39}
{"COMPOUND": "CCC(C)C(=O)Nc1cc(-c2c(-c3ccc(F)cc3)nn3c2CCC3)ccn1 (stereo not shown) [[XI-17]]", "chromatographic logP": 2.23}
{"COMPOUND": "Nc1cc(-c2c(-c3ccc(F)c(Cl)c3)nn3c2CCC3)ccn1 [[II-2]]", "chromatographic logP": 1.28}
{"COMPOUND": "CC1CCn2nc(-c3ccccc3)c(I)c21 (stereo not shown) [[IV-4]]", "chromatographic logP": 3.56}
{"COMPOUND": "Clc1cc(-c2nn3c(c2I)CCCC3)cs1 [[IV-6]]", "chromatographic logP": 4.49}
